pIC50, SARS-CoV-2 3CL-protease (Severe acute respiratory syndrome coronavirus 2), per-entry values.
pIC50: −log10 of the molar value.

Observe how each entry below is paired with its result.
- Sample smiles: "CCCC[C@@H](C(=O)N1C[C@]2(C[C@H]1C#N)C(=O)Nc1ccccc12)N(C)C(=O)c1cnn(C(C)(C)C)c1"
  Data value: "> 7.00"
- Sample smiles: "[2H]C([2H])([2H])N(C(=O)[C@H](O)c1ccccc1)[C@@H](CC(C)(C)C)C(=O)N1C[C@]2(C[C@H]1C#N)C(=O)Nc1ccccc12"
  Data value: "> 7.00"
- Sample smiles: "CC(C)C[C@@H](C(=O)N1C[C@]2(C[C@H]1C#N)C(=O)Nc1ccccc12)N(C)C(=O)c1ccc2nn(C3CC3)cc2c1"
  Data value: "6.00 to 7.00"
- Sample smiles: "COc1ccnc(C(=O)N(C)[C@@H](CC(C)C)C(=O)N2C[C@]3(C[C@H]2C#N)C(=O)Nc2ccccc23)c1"
  Data value: "6.00 to 7.00"

For the compound "CC(C)C[C@@H](C(=O)N1C[C@]2(C[C@H]1C#N)C(=O)Nc1ccccc12)N(C)C(=O)c1cc2ccccc2o1" , the measured pIC50 on SARS-CoV-2 3CL-protease (Severe acute respiratory syndrome coronavirus 2) was > 7.00

For the compound "CC(C)(C)C[C@H](NC(=O)Nc1ccc2ccccc2c1)C(=O)N1C[C@]2(C[C@H]1C#N)C(=O)Nc1ccccc12" , the measured pIC50 on SARS-CoV-2 3CL-protease (Severe acute respiratory syndrome coronavirus 2) was 6.00 to 7.00

Reported SARS-CoV-2 3CL-protease (Severe acute respiratory syndrome coronavirus 2) pIC50 for item "CC(C)C[C@@H](C(=O)N1C[C@]2(C[C@H]1C#N)C(=O)Nc1ccccc12)N(C)C(=O)c1cc(OC2CC2)c2ncccc2c1" was > 7.00
